Catalogue of activation at 1 µM readings, one per entry.
- Test system: isolated urethra
- protocol-text: Isolated urethra contractile action
- Parameters: species or system rat
- stated-conditions: test compound at 1 μM; contractile response by 10 μM phenylephrine as 100%; SD female rat urethra; read-out: Isolated urethra contraction (%)
- Protocol: Test Example 2 Isolated Urethra Contractile Action (1) Evaluation Test on Urethra Contractile Action of Test Compound Using Isolated Urethra The urethra was isolated from an SD female rat having a body weight of 100 to 500 g. […] By taking the contractile response by 10 μM phenylephrine as 100%, the ratio of the contractile response in the concentration of the test compound at 1 μM was calculated. […]
Record the value in %, omitting the unit from your answer.

CNC(=O)c1[nH]c2cc(F)c(OC)cc2c1CCNC(=O)C(F)F [Ex 15] = 261
CNC(=O)c1[nH]c2ccc(OC)cc2c1CCNC(C)=O [Ex 1] = 128
CNC(=O)c1[nH]c2ccc(OC)cc2c1CCNC(=O)C(F)F [Ex 2] = 167

Now examine the next entry.
Reported activation at 1 µM for CCC(=O)NCC[C@@H]1CCc2ccc3c(c21)CCO3 [Ramelteon, reference compound] : what is it?
242

###

- system-name: human MT1 receptor (Homo sapiens)
- Sequence (P48039 whole entry): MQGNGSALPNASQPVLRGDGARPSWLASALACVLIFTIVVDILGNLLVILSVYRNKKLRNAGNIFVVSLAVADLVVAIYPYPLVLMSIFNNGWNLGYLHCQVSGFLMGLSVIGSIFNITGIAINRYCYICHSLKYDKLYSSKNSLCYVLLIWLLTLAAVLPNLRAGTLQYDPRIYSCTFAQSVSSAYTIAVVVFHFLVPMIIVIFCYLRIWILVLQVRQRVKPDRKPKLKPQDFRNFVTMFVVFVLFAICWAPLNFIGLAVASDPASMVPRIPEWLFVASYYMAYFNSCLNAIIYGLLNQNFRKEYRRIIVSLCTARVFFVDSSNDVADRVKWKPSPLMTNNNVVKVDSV
- protocol-text: Activation of human MT1 receptor in receptor-expressing HEK293 cells (intracellular Ca2+, FLIPR)
- stated-conditions: HEK293 cells stably expressing human MT1 and Gq/i chimeric G-protein; intracellular Ca2+ by FLIPR
- Procedure: (1) Isolation of Human MT1 and MT2 Receptor and Construction of Expression Vector […] The respective stably expressing cells were dispensed into 96-well poly-D-lysine-coated plates (Falcon Co.) to 40,000 cells/well the day before the experiment, and incubated overnight in a DMEM (Invitrogen, Inc.) medium including 10% FBS at 37° C. and 5% CO2. […] At this time, a change in the intracellular Ca^2+ concentrations was measured. […]
# strict inequality: EC50 < 8 nM yields Yes, everything else yields No

CNC(=O)c1[nH]c2cc(Cl)c(OC)cc2c1CCNC(C)=O = No
CCCC(=O)NCCc1c(C(=O)NC)[nH]c2cc(F)c(OC)cc12 = Yes
CNC(=O)c1[nH]c2ccc(OC)cc2c1CCNC(=O)C(F)F = No
CNC(=O)c1[nH]c2cc(F)c(OC)cc2c1CCNC(C)=O = No

# check: EC50 < 8 nM for CNC(=O)c1[nH]c2c(F)cc(OC)cc2c1CCNC(=O)C(F)F
No

Consider CNC(=O)NCCc1c(C(=O)NC)[nH]c2ccc(OC)cc12 . Does its EC50 lie strictly below 8 nM?
No

Decide: EC50 of CNC(=O)c1[nH]c2cc(F)c(OC)cc2c1CCNC(=O)C(F)F strictly below 8 nM?
Yes

###

- protocol-text: CNS penetration: CSF to plasma unbound concentration ratio in rat
- Assay type: in vivo
- stated-conditions: CSF and plasma (unbound), iv, 15 minutes after intravenous administration, CCSF/Cplasma,u, read-out: Kp,uu,CSF,iv15min
result-type: Kp uu at 0.25 h
// print number alone

Example entries begin here.
CNC(=O)NCCc1c(C(=O)NC)[nH]c2ccc(OC)cc12 = 0.03
CNC(=O)c1[nH]c2ccc(OC)cc2c1CCNC(C)=O = 0.18
CNC(=O)c1[nH]c2cc(F)c(OC)cc2c1CCNC(=O)C(F)F = 0.07

Consider the compound shown here: CNC(=O)c1[nH]c2cc(F)c(OC)cc2c1CCNC(C)=O What is its recorded Kp uu at 0.25 h?
0.08

Which value of Kp uu at 0.25 h has been reported for CNC(=O)c1[nH]c2ccc(OC)cc2c1CCNC(=O)C(F)F in the records?
0.11
